Provenance of the data: patent US4752612A

assay: In vivo rhesus monkey test, plasma level after topical application; conditions: rhesus monkey, plasma, topical; 7 hr; 200 mg in 1 ml of 25% 1-dodecanol and 75% MP, 49 cm^2 upper back, occluded
measurement.label: concentration at 7 h (ng/mL)
Please respond with the number in ng/mL and leave the unit unwritten.

Please report the recorded concentration at 7 h for CC(C)NCC(O)COc1cccc2ccccc12 (stereo not shown) [Propranolol] .
80

---

test: In vivo rhesus monkey test, plasma level after topical application; conditions: rhesus monkey, plasma, topical; 3 hr; 200 mg in 1 ml of 25% 1-dodecanol and 75% MP, 49 cm^2 upper back, occluded
measurement.label: concentration at 3 h (ng/mL)
Please respond with the number in ng/mL and leave the unit unwritten.

Please report the recorded concentration at 3 h for CC(C)NCC(O)COc1cccc2ccccc12 (stereo not shown) [Propranolol] .
55
